Source listed as patent US6300499A.

# measured target: α1-adrenergic receptor
# experiment description: Test of the bond to the α1-adrenergic receptor (inhibition of [3H]prazosin bond to rat cerebral cortex)
# condition details: [3H]prazosin 0.2 nM, rat cerebral cortex membranes, 30 min, 25° C., pH 7.7
pKi: −log10 of the molar value.

{"columns": ["molecule", "measured target", "pKi"],
 "data": [
  ["Cc1ccccc1N1CCN(CCCNC(=O)C(O)(c2ccccc2)c2ccccc2)CC1", "α1-adrenergic receptor", 7.52],
  ["O=C(NCCCN1CCN(c2ccccc2Cl)CC1)C(O)(c1ccccc1)c1ccccc1", "α1-adrenergic receptor", 7.55],
  ["Cc1ccc(C)c(N2CCN(CCCNC(=O)[C@@](C)(O)c3ccccc3)CC2)c1", "α1-adrenergic receptor", 7.89],
  ["COC(C)(C(=O)NCCCN1CCN(c2cc(C)ccc2C)CC1)c1ccccc1 (racemic)", "α1-adrenergic receptor", 6.96]
]}
